Values from patent US20250277057A1

# targetSystem: T1, human activated protein C (human, UniProt P04070 43-197; P04070 212-461)
# T1 construct: In the plasma assays aPC is generated in human plasma with Protac; also called aPC; haPC
# assayMethodText: direct antigen coating ELISA (KD ELISA) of Fab periplasmic extract, anti-c-myc HRP
propertyLabel: Bmax
The response must contain the number and no unit.

HAPC-14-R1-1L7-B9 (Fab, V domains shown, Single-site mutant Fab of HAPC-14; inferred from the clone name (1L7 = VL CDR1, 7th residue, the only D of that CDR)) VH: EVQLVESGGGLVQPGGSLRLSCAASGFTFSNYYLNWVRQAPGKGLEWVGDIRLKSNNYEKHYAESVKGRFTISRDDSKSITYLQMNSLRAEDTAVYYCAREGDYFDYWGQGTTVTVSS VL: DIQLTQSPSSLSASVGDRVTITCRASESVASFGATFMHWYQQKPGKAPKLLIYLASNLESGVPSRFSGSGSGTDFTLTISSLQPEDFATYYCQQNNEDPYTFGQGTKLEIK yielded Bmax of 0.151

HAPC-14-R1-3L1-D11 (Fab, V domains shown, Single-site mutant Fab of HAPC-14; inferred from the clone name (3L1, same site as Q93V)) VH: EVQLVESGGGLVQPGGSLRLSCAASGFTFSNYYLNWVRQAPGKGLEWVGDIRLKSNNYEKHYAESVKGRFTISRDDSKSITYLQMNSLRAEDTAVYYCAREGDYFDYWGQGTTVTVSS VL: DIQLTQSPSSLSASVGDRVTITCRASESVDSFGATFMHWYQQKPGKAPKLLIYLASNLESGVPSRFSGSGSGTDFTLTISSLQPEDFATYYCWQNNEDPYTFGQGTKLEIK yielded Bmax of 0.261

HAPC-14-R1-3H7-F2 (Fab, V domains shown, Single-site mutant Fab of HAPC-14; inferred from the clone name (3H7 = VH CDR3, 7th residue)) VH: EVQLVESGGGLVQPGGSLRLSCAASGFTFSNYYLNWVRQAPGKGLEWVGDIRLKSNNYEKHYAESVKGRFTISRDDSKSITYLQMNSLRAEDTAVYYCAREGDYFDPWGQGTTVTVSS VL: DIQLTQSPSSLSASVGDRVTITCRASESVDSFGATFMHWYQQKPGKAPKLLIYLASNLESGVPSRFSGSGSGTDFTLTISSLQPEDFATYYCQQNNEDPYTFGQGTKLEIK yielded Bmax of 0.193
